# System: GST-Bcl-2
# procedure.text: TR-FRET binding assay, Bcl-2
# condition.summary: TR-FRET Ki values
Parameter Binding selectivity ratio (Bcl-XL Ki/Bcl-2 Ki): see the listing below.
I'd appreciate a reply containing only the number, no unit.

CN1CCC(Nc2ccc(S(=O)(=O)NC(=O)c3ccc(N4CCN(CC5=C(c6ccc(Cl)cc6)CC(C)(C)OC5)CC4)cc3Oc3ccc4[nH]ccc4c3)cc2[N+](=O)[O-])CC1 [Example 150] ... 667

Next compound, please.
Tell me Binding selectivity ratio (Bcl-XL Ki/Bcl-2 Ki) of CCN(CC)C1CCC(Nc2ccc(S(=O)(=O)NC(=O)c3ccc(N4CCN(CC5=C(c6ccc(Cl)cc6)CC(C)(C)CC5)CC4)cc3Oc3ccc4[nH]ccc4c3)cc2[N+](=O)[O-])CC1 (stereo not drawn) [EXAMPLE 201] when tested on GST-Bcl-2. 196.6

----------
# Tested on: GST-Bcl-2
# procedure.text: TR-FRET binding assay, Bcl-2
# condition.summary: TR-FRET Ki values
observed.property: Binding selectivity ratio (Bcl-XL Ki/Bcl-2 Ki)
Respond numerically, and do not add a unit to the figure.

Example compounds with recorded Binding selectivity ratio (Bcl-XL Ki/Bcl-2 Ki):
CC(c1ccccc1-c1ccc(Cl)cc1)N1CCN(c2ccc(C(=O)NS(=O)(=O)c3ccc(NN4CCN(C)CC4)c([N+](=O)[O-])c3)c(Oc3cccc4[nH]ccc34)c2)CC1 (centres unmarked) ... 171.1
CN(C)CCCOc1ccc(S(=O)(=O)NC(=O)c2ccc(N3CCN(CC4=C(c5ccc(Cl)cc5)CC(C)(C)CC4)CC3)cc2Oc2ccc3[nH]ccc3c2)cc1[N+](=O)[O-] ... 71.4

Now let's try a different one.
Answer with the recorded Binding selectivity ratio (Bcl-XL Ki/Bcl-2 Ki) for the compound listed here: CC1(C)CCC(CN2CCN(c3ccc(C(=O)NS(=O)(=O)c4ccc(NCCCN5CCCC5)c([N+](=O)[O-])c4)c(Oc4cccc5[nH]ccc45)c3)CC2)=C(c2ccc(Cl)cc2)C1 64.1

----------
# Tested on: GST-Bcl-2
# procedure.text: TR-FRET binding assay, Bcl-2
# condition.summary: TR-FRET Ki values
Mark False for Binding selectivity ratio (Bcl-XL Ki/Bcl-2 Ki) values under 400, and True for everything at or above.

CC1(C)CCC(CN2CCN(c3ccc(C(=O)NS(=O)(=O)c4ccc(NCC5CN(CC(F)F)CCO5)c([N+](=O)[O-])c4)c(Oc4cccc5[nH]cnc45)c3)CC2)=C(c2ccc(Cl)cc2)C1 (stereo not shown) [EXAMPLE 415] ... True
O=C(NS(=O)(=O)c1ccc(NCCCN2CCCC2)c([N+](=O)[O-])c1)c1ccc(N2CCN(CC3=C(c4ccc(Cl)cc4)CCCCCC3)CC2)cc1Oc1cccc2[nH]ccc12 [Example 142] ... False
CN1CCN(CCCNc2ccc(S(=O)(=O)NC(=O)c3ccc(N4CCN(CC5=C(c6ccc(Cl)cc6)CC(C)(C)CC5)CC4)cc3Oc3ccc4[nH]ccc4c3)cc2[N+](=O)[O-])CC1 [Example 96] ... False
CN(C)CCCOc1ccc(-c2ccc(Cl)cc2)c(CN2CCN(c3ccc(C(=O)NS(=O)(=O)c4ccc(NCC5CCOCC5)c(S(=O)(=O)C(F)(F)F)c4)c(Oc4ccccc4)c3)CC2)c1 [Example 119] ... False
CC1(C)CCC(CN2CCN(c3ccc(C(=O)NS(=O)(=O)c4cnc(NC5CCN(C6CC6)CC5)c(Cl)c4)c(Oc4cccc5[nH]cnc45)c3)CC2)=C(c2ccc(Cl)cc2)C1 [EXAMPLE 449] ... False
CN1CCC(Nc2ccc(S(=O)(=O)NC(=O)c3ccc(N4CCN(CC5=C(c6ccc(Cl)cc6)CC(C)(C)CC5)CC4)cc3Oc3ccc4[nH]ccc4c3)cc2S(=O)(=O)C(F)(F)F)CC1 [Example 76] ... False

Query compound follows.
Could you please find out whether CC1(C)CCC(CN2CCN(c3ccc(C(=O)NS(=O)(=O)c4cnc(OCC5(F)CCOCC5)c(Cl)c4)c(Oc4cccc5[nH]ncc45)c3)CC2)=C(c2ccc(Cl)cc2)C1 [EXAMPLE 404] has Binding selectivity ratio (Bcl-XL Ki/Bcl-2 Ki) that meets 400 or exceeds it? True

----------
Below, each of the compounds is paired with its reported Binding selectivity ratio (Bcl-XL Ki/Bcl-2 Ki) value.
# System: GST-Bcl-2
# procedure.text: TR-FRET binding assay, Bcl-2
# condition.summary: TR-FRET Ki values

Field: example entries. Status: answers known.
CC1(C)CCC(CN2CCN(c3ccc(C(=O)NS(=O)(=O)c4cccc(C(=O)NCC5CCOCC5)c4)c(Oc4ccc5[nH]ccc5c4)c3)CC2)=C(c2ccc(Cl)cc2)C1 ... >575.9
O=C(NS(=O)(=O)c1ccc(NCC2CCOCC2)c([N+](=O)[O-])c1)c1ccc(N2CCN(Cc3cc(OCCN4CCOCC4)ccc3-c3ccc(Cl)cc3)CC2)cc1Oc1ccc2[nH]ccc2c1 ... >1437.9
CC1(C)CCC(CN2CCN(c3ccc(C(=O)NS(=O)(=O)c4ccc(NCC5CCS(=O)(=O)C5)c([N+](=O)[O-])c4)c(Oc4cccc5[nH]ccc45)c3)CC2)=C(c2ccc(Cl)cc2)C1 (stereo not shown) ... >5708.8

Please give measured Binding selectivity ratio (Bcl-XL Ki/Bcl-2 Ki) of the following entry: O=C(NS(=O)(=O)c1ccc(NCC2CCOCC2)c(S(=O)(=O)C(F)(F)F)c1)c1ccc(N2CCN(Cc3ccccc3-c3ccc(Cl)cc3)CC2)cc1Oc1ccc2ccccc2c1 95.7

Output Binding selectivity ratio (Bcl-XL Ki/Bcl-2 Ki) of CC(C)Oc1cc(-c2ccc(Cl)cc2)c(CN2CCN(c3ccc(C(=O)NS(=O)(=O)c4ccc(NCC5CCOCC5)c([N+](=O)[O-])c4)c(Oc4ccc5[nH]ccc5c4)c3)CC2)cn1 >8.8

Determine its reported Binding selectivity ratio (Bcl-XL Ki/Bcl-2 Ki): CC1(C)CCC(CN2CCN(c3ccc(C(=O)NS(=O)(=O)c4ccc(NC5(CO)CCOCC5)c([N+](=O)[O-])c4)c(Oc4cccc5[nH]ccc45)c3)CC2)=C(c2ccc(Cl)cc2)C1 >108.3

Give me measured Binding selectivity ratio (Bcl-XL Ki/Bcl-2 Ki), please, for this compound: CC1(C)CCC(CN2CCN(c3ccc(C(=O)NS(=O)(=O)c4ccc(NCC5CCOCC5)c([N+](=O)[O-])c4)c(Oc4cccc5[nH]ncc45)c3)CC2)=C(c2ccc(Cl)cc2)C1 >3643.8

Report Binding selectivity ratio (Bcl-XL Ki/Bcl-2 Ki), nothing else, for this compound: CN1CCC(Nc2ccc(S(=O)(=O)NC(=O)c3ccc(N4CCN(CC5=C(c6ccc(Cl)cc6)CC(C)(C)CC5)CC4)cc3Oc3ccc4[nH]ccc4c3)cc2S(=O)(=O)C(F)(F)Cl)CC1 1262.5

Write down Binding selectivity ratio (Bcl-XL Ki/Bcl-2 Ki) measured for item CC1(C)CCC(CN2CCN(c3ccc(C(=O)NS(=O)(=O)c4ccc(NC5CCCCC5N)c([N+](=O)[O-])c4)c(Oc4ccc5[nH]ccc5c4)c3)CC2)=C(c2ccc(Cl)cc2)C1 (stereo not shown) >1120.6

Provide only the value of recorded Binding selectivity ratio (Bcl-XL Ki/Bcl-2 Ki) for CC1(C)CCC(CN2CCN(c3ccc(C(=O)NS(=O)(=O)c4cnc(OC[C@@H]5CCN(C(CF)CF)C5)c(Cl)c4)c(Oc4cccc5[nH]ncc45)c3)CC2)=C(c2ccc(Cl)cc2)C1 727.625

----------
# Tested on: FL5.12/Bcl-2 cells
# procedure.text: FL5.12/Bcl-2 cell viability assay
# Type: cell-based, murine
# condition.summary: ratio of canine platelet EC50 to FL5.12/Bcl-2 EC50
The following compounds are shown together with reported Selectivity Ratio (Platelet EC50/FL5.12/Bcl-2 EC50) values.

Some solved entries appear below for comparison.
CN(C)CCOc1ccc(-c2ccc(Cl)cc2)c(CN2CCN(c3ccc(C(=O)NS(=O)(=O)c4ccc(NCC5CCOCC5)c(S(=O)(=O)C(F)(F)F)c4)c(Oc4ccccc4)c3)CC2)c1 ... >157
CN(C)CCOc1ccc(-c2ccc(Cl)cc2)c(CN2CCN(c3ccc(C(=O)NS(=O)(=O)c4ccc(NC5CCN(CC(F)(F)F)CC5)c([N+](=O)[O-])c4)c(Oc4ccccc4)c3)CC2)c1 ... >178

Kindly review the next compound as well.
Using known records, supply Selectivity Ratio (Platelet EC50/FL5.12/Bcl-2 EC50) for CN1CCC(Nc2ccc(S(=O)(=O)NC(=O)c3ccc(N4CCN(CC5=C(c6ccc(Cl)cc6)CCCCCC5)CC4)cc3Oc3cccc4[nH]ccc34)cc2[N+](=O)[O-])CC1 145

----------
Selectivity Ratio (Platelet EC50/FL5.12/Bcl-2 EC50) reference
# System: FL5.12/Bcl-2 cells
# procedure.text: FL5.12/Bcl-2 cell viability assay
# Format: cell-based, murine
# condition.summary: ratio of canine platelet EC50 to FL5.12/Bcl-2 EC50
Answer with a bare number; do not write a unit.

CC1(C)CCC(CN2CCN(c3ccc(C(=O)NS(=O)(=O)c4ccc(NCCCN5CCCC5)c([N+](=O)[O-])c4)c(Oc4cccc5[nH]ccc45)c3)CC2)=C(c2ccc(F)cc2)C1 [Example 73] ... 166

Okay, next one:
Look up and report measured Selectivity Ratio (Platelet EC50/FL5.12/Bcl-2 EC50) for this entry: CN1CCC(Nc2ccc(S(=O)(=O)NC(=O)c3ccc(N4CCN(CC5=C(c6ccc(Cl)cc6)CC(C)(C)C5)CC4)cc3Oc3cccc4[nH]ccc34)cc2[N+](=O)[O-])CC1 [Example 144] 864

Sourced from patent US9125913B2
